property-label: melting point

1) N#Cc1cc([N+](=O)[O-])ccc1N1CCC(O)CC1 = 114 to 115 °C
2) N=C(N)Nc1nc(CSCCNC2=NS(=O)N=C2O)cs1 (stereo not given) = 148 to 151 °C

Working through the 3 compounds below one at a time, give melting point for each.
1. CCN1C(=O)Nc2ccc(Cl)cc2C1(C#CC1(C)CC1)C(F)(F)F (stereo not given)
2. C[C@@H](CSC(F)(F)C(F)F)[C@](O)(Cn1cncn1)c1ccc(Cl)cc1Cl
3. COc1cc2cc3c(ccc4ccccc43)nc2cc1OC

219 to 222 °C
61 to 63 °C
181 to 182 °C

###

property-label: melting point

1. COCCC(=O)N[C@H]1CC[C@H](CCN2CCC(c3cccc4c3CCO4)CC2)CC1 = 182 °C
2. O=C1CSCC(c2ccc(F)cc2)N1 (stereo unspecified) = 111 to 112 °C
3. CCCCCCCCCCCCCCCCCCSC(=O)Nc1ccccc1 = 85.5 to 86.5 °C
4. CN1CCC(c2nn(CCCO)c3ccccc23)CC1 = 96 to 98 °C

Working through the 3 compounds below one at a time, give melting point for each.
1. O=C(O)[C@H](CCCCO)N1C(=O)c2ccccc2C1=O
2. O=c1cc(-c2c(F)cccc2F)[nH]c(=O)n1-c1ccc(Cl)c(Cl)c1
3. COc1cc(Nc2nccc(-c3ccc(N4CCNCC4)nc3)n2)cc(OC)c1

1: 162 to 163 °C; 2: 256 °C; 3: 176 to 177 °C

Working through the 2 compounds below one at a time, give melting point for each.
1. CS(=O)(=O)Nc1ccc(OC2SCC(O)C(O)C2O)cn1 (stereo unspecified)
2. CCOC(=O)c1cc2cc(Oc3ccc(S(C)(=O)=O)cc3)cc(OC)c2[nH]1

1: 201 to 204 °C; 2: 161 to 162 °C

Working through the 2 compounds below one at a time, give melting point for each.
1. Cc1cccc2c1CCN=C2c1ccc(Cl)cc1
2. Cc1cccc(Cc2ccc(-c3cnn4c(O)ncnc34)cc2C)c1

1. 66 to 67 °C
2. 259 to 262 °C

###

property-label: melting point

1) Nc1cc(C(F)(F)F)nc(C(F)(F)F)c1 = 147 to 149 °C
2) COC(=O)NC1=NCC(c2ccccc2Br)CN1 (stereo not given) = 213 to 215 °C
3) O=C(O)[C@H]1C[C@@H](CP(=O)(O)O)c2ccccc2N1 (relative stereo) = 171 to 173 °C
4) N[C@@H](Cc1ccccc1)C(=O)NC(=O)N(CCCl)N=O = 113 to 115 °C
5) CN(C)CC1CN(c2c(F)cc3c(=O)c(C(=O)O)cn(C4CC4)c3c2F)CCO1 (stereo not given) = 182 to 183 °C

Working through the 6 compounds below one at a time, give melting point for each.
1. CSC1=NC(=O)/C(=C/c2ccccc2Nc2c(Cl)ccc(C)c2Cl)S1
2. O=Cc1c2ccccc2cc2cc(Cl)ccc12
3. CC(=O)NCC1CN(c2cccc(Cl)n2)C1
4. CC1Oc2ccc(CN3CCN(c4nc(-c5ccccc5)ns4)CC3)cc2NC1=O (stereo not given)
5. COC(=O)c1ccccc1S(=O)(=O)NC(=O)Nc1nc(F)cc(OC(F)(F)F)n1
6. COC(=O)C(C)(C)c1ccc(OCCNC(=O)C2Cc3ccccc3N2S(=O)(=O)c2ccc(-c3cc(C(F)(F)F)ccc3Cl)cc2)cc1 (stereo not given)

1. 233 to 236 °C
2. 122 to 124 °C
3. 136 to 138 °C
4. 192 to 221 °C
5. 157 to 161 °C
6. 66 to 72 °C

Working through the 7 compounds below one at a time, give melting point for each.
1. CCOc1cc(OCCOCc2ccccc2)cc2c1C(=O)N(COC(=O)c1c(Cl)cccc1Cl)S2(=O)=O
2. C(=C\c1nc(COc2ccc(CCCCn3ccnc3-c3ccccc3)cc2)co1)/c1ccccc1
3. COc1nscc1[N+](=O)[O-]
4. Cc1oc(-c2ccco2)nc1COc1ccc(COc2nn(Cc3ccc(OCc4nc(-c5ccco5)oc4C)cc3)cc2CO)cc1
5. COc1ccc2c(c1C)OC(C)(C)CC2=O
6. Cc1c2c(c(C)c3c1NC(C)C3)OC(C)(C)C2 (stereo not given)
7. O=C(O)CCCc1cccc(CNC(=O)C2Cc3ccccc3N2S(=O)(=O)c2ccc(-c3cccc(C(F)(F)F)c3)cc2)c1 (stereo not given)

1: 121 to 122 °C; 2: 85 to 86 °C; 3: 118 to 122 °C; 4: 80 to 81 °C; 5: 105 to 107 °C; 6: 87 to 88 °C; 7: 76 °C

Working through the 2 compounds below one at a time, give melting point for each.
1. CCn1c(=O)ccc2cnc(Nc3ccc(OC)cc3)nc21
2. Cc1ccc(-c2cc(Cl)c3ccccc3n2)cc1Cl

["196 to 197 °C", "115 to 116 °C"]
